Collected Emax values appear next to each entry.
target: M1 muscarinic receptor (Homo sapiens, UniProt P11229)
Construct: expressed in transfected cells; host or cells: CHO (M1-CHO)
procedure.text: Functional mobilization of intracellular calcium (FLIPR), M1-CHO cells
Type: cell-based
measurement.context: 100% efficacy = maximum response obtained with the Carbachol control

Examples with their reported Emax follow.
COc1ccc(-c2ccccc2Cl)cc1C1CCN([C@H]2C[C@H]3CC[C@H]2C3)CC1    < 25%
Cc1ccc(C)c(C2(O)CCN(C3CC4CCC3C4)CC2)c1 (stereo not shown)    25 to 100%
COc1ccc(-c2ccc(C(=O)NCCCO)cc2)cc1C1CCN(C2CCOCC2)CC1    < 25%

Could you now consider this next compound?
Task: Field: Emax (M1 muscarinic receptor (Homo sapiens, UniProt P11229)). Entry: COc1ccc(-c2ccc(C(=O)Nc3nccs3)cc2)cc1C1CCN(C2CCCCC2)CC1
Result: < 25%

###

target: M4 muscarinic receptor (Homo sapiens)
Construct: expressed in transfected cells; host or cells: CHO (M4-CHO)
Sequence (P08173 1-479): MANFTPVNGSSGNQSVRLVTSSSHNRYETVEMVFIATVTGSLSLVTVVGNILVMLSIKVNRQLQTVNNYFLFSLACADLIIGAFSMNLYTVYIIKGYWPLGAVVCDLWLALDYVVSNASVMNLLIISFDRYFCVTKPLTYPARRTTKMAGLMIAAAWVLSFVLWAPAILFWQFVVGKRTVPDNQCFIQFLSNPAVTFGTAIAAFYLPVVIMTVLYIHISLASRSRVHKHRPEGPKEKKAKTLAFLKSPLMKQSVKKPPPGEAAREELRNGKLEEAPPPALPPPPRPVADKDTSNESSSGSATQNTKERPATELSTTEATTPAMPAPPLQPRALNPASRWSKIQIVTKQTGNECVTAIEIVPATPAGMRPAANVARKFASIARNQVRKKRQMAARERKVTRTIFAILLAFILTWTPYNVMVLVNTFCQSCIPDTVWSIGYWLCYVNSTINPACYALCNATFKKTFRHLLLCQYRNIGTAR
procedure.text: Functional mobilization of intracellular calcium (FLIPR), M4-CHO cells
Assay type: cell-based
measurement.context: 100% efficacy = maximum response obtained with the Carbachol control
readout.type: Emax

COc1ccc(Cl)cc1C1CCN(C2CCCCCC2)CC1 [Compound 181]    25 to 100%
COc1ccc(-c2cccc(Cl)c2)cc1C1CCN([C@@H]2C[C@H]3CC[C@H]2C3)CC1 [Compound 143]    25 to 100%
COc1ccc(Br)cc1C1CCN([C@@H]2C[C@@H]3CC[C@H]2C3)CC1 [Compound 187]    25 to 100%

Task: Given Cc1ccc(C)c(C2(O)CCN(C3CC4CCC3C4)CC2)c1 (centres unmarked) [Compound 135] , state its recorded Emax.
Result: < 25%

###

target: M1 muscarinic receptor (Homo sapiens, UniProt P11229)
Construct: expressed in transfected cells; host or cells: CHO (M1-CHO)
Sequence (P11229 1-460): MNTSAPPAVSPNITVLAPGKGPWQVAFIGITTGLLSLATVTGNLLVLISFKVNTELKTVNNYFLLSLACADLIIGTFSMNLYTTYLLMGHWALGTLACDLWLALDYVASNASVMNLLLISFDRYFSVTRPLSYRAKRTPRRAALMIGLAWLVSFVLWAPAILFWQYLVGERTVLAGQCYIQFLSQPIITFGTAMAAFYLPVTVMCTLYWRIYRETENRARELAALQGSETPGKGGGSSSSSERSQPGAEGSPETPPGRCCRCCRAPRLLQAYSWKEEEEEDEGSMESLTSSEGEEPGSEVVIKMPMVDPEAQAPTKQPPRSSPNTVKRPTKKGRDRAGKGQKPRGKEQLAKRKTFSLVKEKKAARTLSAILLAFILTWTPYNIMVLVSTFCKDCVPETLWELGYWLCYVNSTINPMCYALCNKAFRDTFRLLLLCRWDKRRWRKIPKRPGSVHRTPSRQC
procedure.text: Functional mobilization of intracellular calcium (FLIPR), M1-CHO cells
Assay type: cell-based
measurement.context: 100% efficacy = maximum response obtained with the Carbachol control
The compounds listed here are annotated with their Emax.

Known results for compounds:
COc1ccc(Cl)cc1C1(OC)CCN(C2CCOCC2)CC1    < 25%
COc1ccc(-c2ccc(S(C)(=O)=O)cc2)cc1C1CCN([C@H]2C[C@H]3CC[C@H]2C3)CC1    < 25%
COc1ccc(-c2ccoc2)cc1C1CCN([C@@H]2C[C@H]3CC[C@H]2C3)CC1    < 25%
Fc1ccccc1C1CCN(C2C[C@H]3CC[C@H]2C3)CC1 (some centres unmarked)    25 to 100%
COc1ccc(F)cc1C1(OC)CCN(C2CC3CCC(C3)C2)CC1 (centres unmarked)    < 25%

Task: API: value(readout=Emax, system=M1 muscarinic receptor (Homo sapiens, UniProt P11229)) for record CNC(=O)c1ccc(-c2ccc(OC)c(C3CCN(C4CCOCC4)CC3)c2)cc1
Result: < 25%

Task: Same for COc1ccccc1C1CCN(CC2CCCCC2)CC1
Result: < 25%

Task: Another compound to look at: CCCC1CCC(N2CCC(F)(c3cc(Cl)ccc3OC)CC2)CC1 (centres unmarked)
Result: 25 to 100%
